Biological target: human OX2R (Homo sapiens)
Construct: host or cells: CHO-K1 (Chinese Hamster Ovary K1)
Sequence (O43614 1-444): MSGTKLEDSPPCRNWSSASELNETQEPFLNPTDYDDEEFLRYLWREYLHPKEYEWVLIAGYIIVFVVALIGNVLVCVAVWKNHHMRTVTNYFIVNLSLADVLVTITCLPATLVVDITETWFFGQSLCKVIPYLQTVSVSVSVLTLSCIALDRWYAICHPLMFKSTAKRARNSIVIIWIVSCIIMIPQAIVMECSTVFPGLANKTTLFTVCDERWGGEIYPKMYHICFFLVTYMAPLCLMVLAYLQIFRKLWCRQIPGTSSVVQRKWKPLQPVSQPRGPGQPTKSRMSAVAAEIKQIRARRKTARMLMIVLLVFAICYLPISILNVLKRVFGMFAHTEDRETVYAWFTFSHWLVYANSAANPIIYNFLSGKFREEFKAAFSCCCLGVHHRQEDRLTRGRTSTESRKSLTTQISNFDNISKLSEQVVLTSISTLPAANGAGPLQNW
Test: Evaluation of OX2R agonist activity (intracellular calcium, CHO-K1 cells with forced expression of human OX2R)
Format: cell-based
Conditions: CHO-K1 cells expressing human OX2R; 100% = 5 µM of the reference compound; read-out: hOX2R EC50
pEC50: −log10 of the molar value.
# label = Condition met if pEC50 >= 7 else Condition not met

// known answers, use as guide
MOLECULE: CC(C)(O)C(=O)N1C2CC(C2)C(NS(C)(=O)=O)C1Cc1cccc(-c2cc(F)cc(F)c2)c1 (single isomer, unassigned)
QUALITATIVE LABEL: Condition not met

MOLECULE: C[C@@H](O)C(=O)N1C2CC(C2)[C@H](NS(C)(=O)=O)[C@@H]1Cc1cccc(-c2cc(F)cc(F)c2)c1F
QUALITATIVE LABEL: Condition met

MOLECULE: CC(C)C(=O)N1C2CC(C2)[C@H](NS(C)(=O)=O)[C@@H]1Cc1cccc(-c2ccccc2)c1F
QUALITATIVE LABEL: Condition met

Exam item: decide whether the reported pEC50 for COCC(=O)N1C2CC(C2)[C@H](NS(C)(=O)=O)[C@@H]1Cc1cccc(-c2cc(F)cc(F)c2)c1F is at least 7.
Condition not met

In plain terms: is recorded pEC50 at least 7 for CS(=O)(=O)N[C@H]1C2CC(C2)N(C(=O)C2CC2)[C@H]1Cc1cccc(-c2cc(F)cc(F)c2)c1F ?
Condition met

Please check the record [2H]C([2H])([2H])[C@@]([2H])(O)C(=O)N1C2CC(F)(C2)[C@H](NS(C)(=O)=O)[C@@H]1Cc1cccc(-c2ccccc2)c1F and state if its pEC50 is at or above 7.
Condition met

Hi, just wondering whether COc1cccc(-c2cccc(C[C@H]3[C@@H](NS(C)(=O)=O)C4CC(C4)N3C(=O)C(C)(C)O)c2F)c1 (stereo in doubt) shows pEC50 of 7 or higher.
Condition not met

Numbers sourced from patent EP4635944A1.
